- procedureSummary: solvent given as SMILES
- recordedConditions: in Cc1ccccc1
# emission maximum annotations
All answers are understood in nm, so give the number only.

{"compound": "CC1(C)Nc2cc(Cl)ccc2-c2[nH]c3ccccc3c(=O)c21", "unitsText": "nm", "observed": 460}
{"compound": "CCCCC(CC)Cn1c2cc(C#N)c(-c3ccc(N(c4ccccc4)c4ccccc4)cc3)cc2c2cc(-c3ccc(N(c4ccccc4)c4ccccc4)cc3)c(C#N)cc21 (stereo unspecified)", "unitsText": "nm", "observed": 473}

Please list emission maximum recorded for the compound "COCCC1=Cc2nc1ccc1[nH]c(cc1CCOC)c1nc(c(N)cc3[nH]c2cc3CCOC)C(CCOC)=C1"
748

Fill in emission maximum for record "CCCCCCCCCCCCCCCCOc1cc(C#Cc2ccc3ccccc3c2)c(OCCCCCCCCCCCCCCCC)cc1C#Cc1ccc(C=C(C#N)C#N)cc1"
530

Complete the entry with emission maximum for "c1ccc(-n2c(-c3cccc4ccccc34)nc3c4cccc5ccc6cccc(c6c54)c32)cc1"
420

Answer with reported emission maximum of "CC1(C)c2ccccc2N(c2cc[n+]3c(c2)-c2ccccc2O[B-]3(F)F)c2ccccc21"
540

Complete the entry with emission maximum for "CC(=O)Nc1ccc2c3c(cccc13)C(=O)c1ccccc1-2"
516

// fetch emission maximum given entry "CN(C)c1ccc(/C=C/C=C2\CC/C(=C\c3ccc(N(C)C)cc3)C2=O)cc1"
530

Identify emission maximum associated with the compound "c1ccc(-c2nnc(-c3ccccc3)n2-c2ccc(N3c4ccccc4N(c4ccccc4)c4ccccc43)cc2)cc1"
495

Identify emission maximum associated with the compound "CCn1c2ccccc2c2cc(-c3cc(-c4ccc5c(c4)c4ccccc4n5CC)nc(-c4ccccc4)n3)ccc21"
380

Give the value of emission maximum reported for the following: "CC1(C)c2ccccc2N(c2ccc(C(=CC#N)c3ccc(N4c5ccccc5C(C)(C)c5ccccc54)cc3)cc2)c2ccccc21"
519

Name the recorded emission maximum of the item "CCOC(=O)COc1ccc(/C=C/C2=C3c4ccccc4C(c4[nH]c(C)cc4C)=[N+]3[B-](F)(F)n3c(C)cc(C)c32)cc1" in your answer.
690

Provide one value: measured emission maximum of "CCCCCCCCOC(=O)c1ccc(-c2cc3ccc4cc(-c5ccc(C(=O)OCCCCCCCC)cc5)cc5ccc(c2)c3c45)cc1"
421

Determine from records and report emission maximum for "CCCCCCOc1ccc(N(c2ccc(OCCCCCC)cc2)c2ccc(-c3sc(-c4ccc(N(c5ccc(OCCCCCC)cc5)c5ccc(OCCCCCC)cc5)cc4)c4nc(-c5ccccc5)c(-c5ccccc5)nc34)cc2)cc1"
748

Find the measured emission maximum of "c1ccc(-c2cc(-c3ccc(N4c5ccccc5C(c5ccccc5)(c5ccccc5)c5ccccc54)cc3)nc(-c3ccccc3)n2)cc1" and report it.
450

Supply recorded emission maximum for "Oc1ccccc1-c1nc2c3cccnc3c3ncccc3c2n1-c1ccccc1" here.
379
